Tested on: U-87
PROTOCOL_SUMMARY: SRB cytotoxicity assay, U-87 (2nd panel)
Assay type: cell-based, human
MEASUREMENT_SETUP: IC50 normal cell line HDF/IC50 U-87
I'd appreciate it if you marked entries yes (1) when selectivity index SIHDF (U-87) is lower than 2 and no (0) when it is not.

Could you please tell me whether selectivity index SIHDF (U-87) recorded for CO[C@H]1/C=C\C=C(/C)C(=O)NC2=CC(=O)C(NC3C[N+]4(C/C=C/c5ccccc5)CCC3CC4)=C(C[C@@H](C)C[C@H](OC)[C@H](O)[C@@H](C)/C=C(\C)[C@@H]1OC(N)=O)C2=O (stereo partly shown) [Compound 13] is less than 2?
yes (1)

Identify whether the compound CO[C@H]1/C=C\C=C(/C)C(=O)NC2=CC(=O)C(NC3C[N+]4(Cc5ccsc5Br)CCC3CC4)=C(C[C@@H](C)C[C@H](OC)[C@H](O)[C@@H](C)/C=C(\C)[C@@H]1OC(N)=O)C2=O (stereo partly shown) [Compound 12] records selectivity index SIHDF (U-87) below 2.
yes (1)

Criterion: selectivity index SIHDF (U-87) strictly below 2. Is it met by CO[C@H]1/C=C\C=C(/C)C(=O)NC2=CC(=O)C(NC3C[N+]4(Cc5ccc([N+](=O)[O-])o5)CCC3CC4)=C(C[C@@H](C)C[C@H](OC)[C@H](O)[C@@H](C)/C=C(\C)[C@@H]1OC(N)=O)C2=O (stereo partly shown) [Compound 11] ?
yes (1)

Hello, I'm reviewing records and need to know if selectivity index SIHDF (U-87) of C/C=C/C[N+]12CCC(CC1)C(NC1=C3C[C@@H](C)C[C@H](OC)[C@H](O)[C@@H](C)/C=C(\C)[C@H](OC(N)=O)[C@@H](OC)/C=C\C=C(/C)C(=O)NC(=CC1=O)C3=O)C2 (stereo partly shown) [Compound 10] is below 2. Could you check?
yes (1)

Is selectivity index SIHDF (U-87) of COC1=C2C[C@@H](C)C[C@H](OC)[C@H](O)[C@@H](C)/C=C(\C)[C@H](OC(N)=O)[C@@H](OC)/C=C\C=C(/C)C(=O)NC(=CC1=O)C2=O [GDM, Geldanamycin] strictly below 2?
no (0)

For this compound, is selectivity index SIHDF (U-87) lower than 2? C=CC[N+]12CCC(CC1)C(NC1=C3C[C@@H](C)C[C@H](OC)[C@H](O)[C@@H](C)/C=C(\C)[C@H](OC(N)=O)[C@@H](OC)/C=C\C=C(/C)C(=O)NC(=CC1=O)C3=O)C2 (stereo partly shown) [Compound 9]
yes (1)

Dear reviewer, please state whether CO[C@H]1/C=C\C=C(/C)C(=O)NC2=CC(=O)C(NC3CCC3)=C(C[C@@H](C)C[C@H](OC)[C@H](O)[C@@H](C)/C=C(\C)[C@@H]1OC(N)=O)C2=O [Compound 1] has selectivity index SIHDF (U-87) strictly beneath 2.
no (0)

----------
Tested on: MCF-7
PROTOCOL_SUMMARY: MTT cytotoxicity assay, MCF-7 (1st panel)
Type: cell-based, human
MEASUREMENT_SETUP: Homo sapiens, MCF7, 72 h, ± SD; MTT, 72 h
PARAMETER: pIC50
Value format note: pIC50 is -log10 of concentration (mol/L); just state the number.

Below: 2 compounds and their reported pIC50.
{"COMPOUND": "CO[C@H]1/C=C\\C=C(/C)C(=O)NC2=CC(=O)C(NC3CCN(Cc4ccccc4)CC3)=C(C[C@@H](C)C[C@H](OC)[C@H](O)[C@@H](C)/C=C(\\C)[C@@H]1OC(N)=O)C2=O [Compound 5]", "ASSAY_SYSTEM": "MCF-7", "RECORDED_RESULT": 5.74}
{"COMPOUND": "CO[C@H]1/C=C\\C=C(/C)C(=O)NC2=CC(=O)C(NC3CCN(S(C)(=O)=O)CC3)=C(C[C@@H](C)C[C@H](OC)[C@H](O)[C@@H](C)/C=C(\\C)[C@@H]1OC(N)=O)C2=O [Compound 7]", "ASSAY_SYSTEM": "MCF-7", "RECORDED_RESULT": 6.02}

Param item = CO[C@H]1/C=C\C=C(/C)C(=O)NC2=CC(=O)C(NC3C[N+]4(Cc5ccsc5Br)CCC3CC4)=C(C[C@@H](C)C[C@H](OC)[C@H](O)[C@@H](C)/C=C(\C)[C@@H]1OC(N)=O)C2=O (some centres unmarked) [Compound 12] ; retrieve measured pIC50.
5.58

----------
System: U-87
PROTOCOL_SUMMARY: SRB cytotoxicity assay, U-87 (2nd panel)
Assay type: cell-based, human
MEASUREMENT_SETUP: Homo sapiens, U-87 MG; ± SD; SRB, 72 h
Description: U-87MG cells (glioblastoma cell line) were cultured in Eagle’s Minimal Essential Medium. Human Dermal Fibroblasts cell line (HDF) was cultured in Fibroblast Basal Medium. Each medium was supplemented with 10% fetal bovine serum, 1% L-glutamine, and 1% penicillin/streptomycin solution. […] The optimal plating density of cell lines was determined to be 5 × 104. […] acetic acid and then air dried overnight. […] Cell survival was measured as the percentage absorbance compared to the control (nontreated cells). […]
IC50 strictly less than 2000 nM = true (1). Otherwise false (0).

Reference set (4 entries):
{"COMPOUND": "CO[C@H]1/C=C\\C=C(/C)C(=O)NC2=CC(=O)C(NC3CCC3)=C(C[C@@H](C)C[C@H](OC)[C@H](O)[C@@H](C)/C=C(\\C)[C@@H]1OC(N)=O)C2=O", "LABEL": "false (0)"}
{"COMPOUND": "C/C=C/C[N+]12CCC(CC1)C(NC1=C3C[C@@H](C)C[C@H](OC)[C@H](O)[C@@H](C)/C=C(\\C)[C@H](OC(N)=O)[C@@H](OC)/C=C\\C=C(/C)C(=O)NC(=CC1=O)C3=O)C2 (some centres unmarked)", "LABEL": "true (1)"}
{"COMPOUND": "COC1=C2C[C@@H](C)C[C@H](OC)[C@H](O)[C@@H](C)/C=C(\\C)[C@H](OC(N)=O)[C@@H](OC)/C=C\\C=C(/C)C(=O)NC(=CC1=O)C2=O", "LABEL": "true (1)"}
{"COMPOUND": "CO[C@H]1/C=C\\C=C(/C)C(=O)NC2=CC(=O)C(NC3C[N+]4(Cc5ccc([N+](=O)[O-])o5)CCC3CC4)=C(C[C@@H](C)C[C@H](OC)[C@H](O)[C@@H](C)/C=C(\\C)[C@@H]1OC(N)=O)C2=O (some centres unmarked)", "LABEL": "false (0)"}

Proceed to the following item.
Dear reviewer, please state whether CO[C@H]1/C=C\C=C(/C)C(=O)NC2=CC(=O)C(NC3C[N+]4(C/C=C/c5ccccc5)CCC3CC4)=C(C[C@@H](C)C[C@H](OC)[C@H](O)[C@@H](C)/C=C(\C)[C@@H]1OC(N)=O)C2=O (some centres unmarked) has IC50 strictly beneath 2000 nM.
false (0)

----------
Item-by-item account of solubility
PROTOCOL_SUMMARY: physchem
MEASUREMENT_SETUP: water, Solubility SH2O

{"COMPOUND": "CO[C@H]1/C=C\\C=C(/C)C(=O)NC2=CC(=O)C(NC3C[N+]4(Cc5ccc([N+](=O)[O-])o5)CCC3CC4)=C(C[C@@H](C)C[C@H](OC)[C@H](O)[C@@H](C)/C=C(\\C)[C@@H]1OC(N)=O)C2=O (some centres unmarked)", "RECORDED_RESULT": "2300 µg/mL"}
{"COMPOUND": "CO[C@H]1/C=C\\C=C(/C)C(=O)NC2=CC(=O)C(NC3C[N+]4(Cc5ccsc5Br)CCC3CC4)=C(C[C@@H](C)C[C@H](OC)[C@H](O)[C@@H](C)/C=C(\\C)[C@@H]1OC(N)=O)C2=O (some centres unmarked)", "RECORDED_RESULT": "4500 µg/mL"}
{"COMPOUND": "CO[C@H]1/C=C\\C=C(/C)C(=O)NC2=CC(=O)C(NC3C[N+]4(C/C=C/c5ccccc5)CCC3CC4)=C(C[C@@H](C)C[C@H](OC)[C@H](O)[C@@H](C)/C=C(\\C)[C@@H]1OC(N)=O)C2=O (some centres unmarked)", "RECORDED_RESULT": "> 5000 µg/mL"}
{"COMPOUND": "C/C=C/C[N+]12CCC(CC1)C(NC1=C3C[C@@H](C)C[C@H](OC)[C@H](O)[C@@H](C)/C=C(\\C)[C@H](OC(N)=O)[C@@H](OC)/C=C\\C=C(/C)C(=O)NC(=CC1=O)C3=O)C2 (some centres unmarked)", "RECORDED_RESULT": "> 5000 µg/mL"}

Quick one: solubility for CO[C@H]1/C=C\C=C(/C)C(=O)NC2=CC(=O)C(NC3CN4CCC3CC4)=C(C[C@@H](C)C[C@H](OC)[C@H](O)[C@@H](C)/C=C(\C)[C@@H]1OC(N)=O)C2=O (some centres unmarked) ?
150 µg/mL
